assaySystem: Tyrosyl-tRNA synthetase, putative (Trypanosoma cruzi (strain CL Brener)) (UniProt Q4DSP6)
Sequence (Q4DSP6 as listed by the source): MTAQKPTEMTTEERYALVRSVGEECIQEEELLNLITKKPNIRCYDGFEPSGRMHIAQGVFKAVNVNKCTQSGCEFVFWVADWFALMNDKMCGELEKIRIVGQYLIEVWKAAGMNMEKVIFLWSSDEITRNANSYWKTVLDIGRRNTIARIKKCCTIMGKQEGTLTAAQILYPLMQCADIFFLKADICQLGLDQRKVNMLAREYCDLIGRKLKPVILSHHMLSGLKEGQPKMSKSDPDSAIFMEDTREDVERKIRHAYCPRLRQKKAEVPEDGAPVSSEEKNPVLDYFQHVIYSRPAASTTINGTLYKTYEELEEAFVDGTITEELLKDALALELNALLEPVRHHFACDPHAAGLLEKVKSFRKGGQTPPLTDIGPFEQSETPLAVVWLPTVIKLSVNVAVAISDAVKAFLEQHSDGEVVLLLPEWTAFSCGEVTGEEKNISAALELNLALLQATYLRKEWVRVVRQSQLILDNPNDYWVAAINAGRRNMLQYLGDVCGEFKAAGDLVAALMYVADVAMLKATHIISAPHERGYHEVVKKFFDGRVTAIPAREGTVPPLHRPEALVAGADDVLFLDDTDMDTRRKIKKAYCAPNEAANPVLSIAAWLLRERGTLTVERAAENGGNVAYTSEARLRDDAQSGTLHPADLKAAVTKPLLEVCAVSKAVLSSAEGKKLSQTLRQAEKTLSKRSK
experimentDescription: Trypanosoma cruzi tyrosyl tRNA synthetase (TcYRS) SOP
Format: functional
Set-up: scale not given: direction of the effect not stated beside the values
measurementContext: 30 µM
Assign labels as follows, please: TRUE for Percent Effect below 10%; FALSE for Percent Effect equal to or exceeding 10%.

query: Consider the compound CS(=O)(=O)CCC(=O)N1CCC2(CCCN(C3CCOCC3)C2=O)C1 (configuration not stated) . Is its Percent Effect strictly less than 10%?
result: FALSE

query: Consider the compound CC(C)(C)C(=O)NCCc1ccn(-c2ccccc2)n1 . Is its Percent Effect strictly less than 10%?
result: FALSE

query: Consider the compound CC(NC(=O)N(C)CCCOc1ccc(F)cc1)c1nncn1C (configuration not stated) . Is its Percent Effect strictly less than 10%?
result: FALSE

query: Consider the compound Cc1ccccc1OCCC(=O)OC(C)C(=O)Nc1sccc1C(N)=O (configuration not stated) . Is its Percent Effect strictly less than 10%?
result: TRUE

query: Consider the compound COc1cccc(S(=O)(=O)N2CCn3cnc(COCC4CC4)c3C2)c1 . Is its Percent Effect strictly less than 10%?
result: TRUE

query: Consider the compound NC(=O)N1CCC2(CC1)CN(c1ccsc1)C(=O)CO2 . Is its Percent Effect strictly less than 10%?
result: TRUE

query: Consider the compound COc1cnc(C2(O)CCN(C(=O)c3cccnc3)CC2)c(OC)n1 . Is its Percent Effect strictly less than 10%?
result: TRUE

query: Consider the compound Cc1cc(C)n(-c2cc(N3CCN(C(=O)C(C)(C)C)CC3)nc(C)n2)n1 . Is its Percent Effect strictly less than 10%?
result: TRUE

query: Consider the compound Cc1cccnc1NC(=O)CSc1ccc2c(c1)OCCO2 . Is its Percent Effect strictly less than 10%?
result: TRUE

query: Consider the compound CCc1nc(CN2CCN(C(=O)c3cnccn3)CC2)cs1 . Is its Percent Effect strictly less than 10%?
result: FALSE

query: Consider the compound Cn1cc(CCC(=O)N2C[C@H]3CC[C@@H]2CN(Cc2ccccc2)C3)cn1 . Is its Percent Effect strictly less than 10%?
result: TRUE

query: Consider the compound CCOCC1CN(S(C)(=O)=O)Cc2cnn(CC3CCOCC3)c21 (configuration not stated) . Is its Percent Effect strictly less than 10%?
result: FALSE

query: Consider the compound Cc1nc(C)n(CC2CN(CCOCC(F)(F)F)CCO2)n1 (configuration not stated) . Is its Percent Effect strictly less than 10%?
result: TRUE

query: Consider the compound Cc1ccsc1CN(C)C(=O)Cn1nc(-c2ccc(F)cc2)oc1=O . Is its Percent Effect strictly less than 10%?
result: TRUE

query: Consider the compound Cc1ccc(CN(C)CC(=O)NC2(C)CCS(=O)(=O)C2)cc1 (configuration not stated) . Is its Percent Effect strictly less than 10%?
result: FALSE

query: Consider the compound O=C(C1CCOCC1)N1CC[C@H]2C[C@@H](c3ccncn3)O[C@@H]2C1 . Is its Percent Effect strictly less than 10%?
result: FALSE

query: Consider the compound O=C(COc1ccc2c(c1)CCC2)NS(=O)(=O)c1cncc(Br)c1 . Is its Percent Effect strictly less than 10%?
result: TRUE

query: Consider the compound c1cnn(Cc2nnc3n2CCCN(CC2CCOCC2)C3)c1 . Is its Percent Effect strictly less than 10%?
result: TRUE

query: Consider the compound Cc1cccc(CN2C[C@@H]3CN(C(=O)[C@H]4CCCO4)C[C@@H]3C2=O)c1 . Is its Percent Effect strictly less than 10%?
result: FALSE

query: Consider the compound c1ccc(-c2nc(CN3CCOC(Cn4cccn4)C3)no2)cc1 (configuration not stated) . Is its Percent Effect strictly less than 10%?
result: FALSE

query: Consider the compound CCn1cc(CN(C)S(=O)(=O)c2cc(Cl)ccc2Cl)cn1 . Is its Percent Effect strictly less than 10%?
result: TRUE

query: Consider the compound CCCNCc1cc2c(C)cc(C)cc2n2c(=O)n(C)nc12 . Is its Percent Effect strictly less than 10%?
result: TRUE

query: Consider the compound COCCNC(=O)[C@H]1CN(Cc2nccs2)C[C@H]2OCC[C@@H]12 . Is its Percent Effect strictly less than 10%?
result: TRUE

query: Consider the compound Cn1cc(CN2CCOC3(CCCN(C(=O)c4ccco4)C3)C2)cn1 (configuration not stated) . Is its Percent Effect strictly less than 10%?
result: TRUE

query: Consider the compound Cc1cc(C)n(CC2CCCCN2CCCS(N)(=O)=O)n1 (configuration not stated) . Is its Percent Effect strictly less than 10%?
result: TRUE

query: Consider the compound Cc1cc(C)n(CCCNC(=O)[C@@H](C)NC(=O)OC(C)(C)C)n1 . Is its Percent Effect strictly less than 10%?
result: FALSE

query: Consider the compound CCCc1cc(=O)n(CC(N)=O)c(-n2nc(C)cc2C)n1 . Is its Percent Effect strictly less than 10%?
result: FALSE

query: Consider the compound Cn1cccc1C(=O)NCc1cnc2n1CCN(C(=O)N1CCCC1)C2 . Is its Percent Effect strictly less than 10%?
result: FALSE

query: Consider the compound CO[C@@H]1CC[C@H]2[C@H]1OCCN2C(=O)COc1ccc(F)cc1 . Is its Percent Effect strictly less than 10%?
result: TRUE

query: Consider the compound CCS(=O)(=O)N1CCc2c(cccc2NC(=O)NCCOC)C1 . Is its Percent Effect strictly less than 10%?
result: FALSE

query: Consider the compound CCC1=N[C@@]2(CC[C@@H]3CN(S(=O)(=O)CC)C[C@@H]32)C(=O)N1CC(C)C . Is its Percent Effect strictly less than 10%?
result: TRUE

query: Consider the compound O=C(O)C1CCCCN1C(=O)c1cccc(C(F)(F)F)c1 (configuration not stated) . Is its Percent Effect strictly less than 10%?
result: FALSE

query: Consider the compound Cc1nc(CN2CCC(N(C)Cc3noc(C4CC4)n3)C2)oc1C (configuration not stated) . Is its Percent Effect strictly less than 10%?
result: FALSE

query: Consider the compound Cc1cc(NC(=O)CN2CCOC(Cn3cccn3)C2)n(C)n1 (configuration not stated) . Is its Percent Effect strictly less than 10%?
result: TRUE

query: Consider the compound CCn1ncc2c1CCCC2NCc1cccc2c1OCCO2 (configuration not stated) . Is its Percent Effect strictly less than 10%?
result: TRUE

query: Consider the compound Cc1ccccc1OCCC(=O)N1CCCC(n2cncn2)C1 (configuration not stated) . Is its Percent Effect strictly less than 10%?
result: FALSE

query: Consider the compound COCCN1CCN(C(=O)C2CC=CC2)Cc2cccnc21 . Is its Percent Effect strictly less than 10%?
result: FALSE

query: Consider the compound CN(CCCc1cnn(C)c1)C(=O)C1CCOC1 (configuration not stated) . Is its Percent Effect strictly less than 10%?
result: TRUE

query: Consider the compound CC(C)c1nn(C)c(N2CCOCC2)c1CNCC(=O)N(C)C . Is its Percent Effect strictly less than 10%?
result: FALSE

query: Consider the compound CC(C)C(=O)N1CCC(c2nc(O)cc(-c3ccncc3)n2)CC1 . Is its Percent Effect strictly less than 10%?
result: FALSE

query: Consider the compound CC(C)Cc1noc(CN2CCOCC2)n1 . Is its Percent Effect strictly less than 10%?
result: FALSE

query: Consider the compound CC(=O)N1CCCC1c1cc(N2CCN(C3CCCC3)CC2)cc(C)n1 (configuration not stated) . Is its Percent Effect strictly less than 10%?
result: FALSE

query: Consider the compound N#CCCN(CCC#N)C(=O)CN1CCCC1Cc1cccc(F)c1 (configuration not stated) . Is its Percent Effect strictly less than 10%?
result: TRUE

query: Consider the compound CCc1nccn1C1CCCN(C(=O)c2cnn3ccc(C)nc23)C1 (configuration not stated) . Is its Percent Effect strictly less than 10%?
result: TRUE

query: Consider the compound Cc1ccc(-c2nnc(CNCCn3cc(C)cn3)o2)cc1 . Is its Percent Effect strictly less than 10%?
result: FALSE

query: Consider the compound CC(=O)N1CC(=O)N(c2cnn(C)c2)CC12CCN(CC1CC1)C2 (configuration not stated) . Is its Percent Effect strictly less than 10%?
result: TRUE

query: Consider the compound N#Cc1ccc(OCCOc2ccccc2C(=O)N2CCOCC2)cc1 . Is its Percent Effect strictly less than 10%?
result: FALSE
